Overview of recorded logarithmic reduction factor for various molecules
# System: Candida albicans ATCC 10231
# protocolNotes: DGHM suspension test, microbicidal activity
# Type: cell-based
# experimentalConditions: CU 100 mg/l; contact time 5 mins.

molecule	recordedValue
CCCCCCCCC(=O)OCC[N+](C)(C)CCOC(=O)CCCCCCCC.COS(=O)(=O)[O-] [Example 3]	>4.63
CCCCCCCC(=O)OCC[N+](C)(C)CCOC(=O)CCCCCCC.COS(=O)(=O)[O-] [Example 1]	<0.50
CCCCCCCCCC(=O)OCC[N+](C)(C)CCOC(=O)CCCCCCCCC.COS(=O)(=O)[O-] [Example 10]	4.27
CCCCCCCC(=O)OCC[N+](C)(CCO)CCOC(=O)CCCCCCC.COS(=O)(=O)[O-] [Example 7]	>4.31
CCCCCCCCCC(=O)OCC[N+](C)(CCO)CCOC(=O)CCCCCCCCC.COS(=O)(=O)[O-] [Example 6]	1.27

Consider now this further molecule.
## Input # query: logarithmic reduction factor of entry CCCCCCCC(=O)OCC[N+](C)(CCOC(=O)CCCCCCC)CCOC(=O)CCCCCCC.COS(=O)(=O)[O-] [Example 2]
## Output >4.73

---

Overview of recorded logarithmic reduction factor for various compounds
# Test system: Staphylococcus aureus ATCC 6538
# protocolNotes: DGHM suspension test, microbicidal activity
# Assay type: cell-based
# experimentalConditions: CU 100 mg/l; contact time 5 mins.

Answered cases to consult:
compound	testedOn	recordedValue
CCCCCCCCC(=O)OCC[N+](C)(C)CCOC(=O)CCCCCCCC.COS(=O)(=O)[O-] [Example 3]	Staphylococcus aureus ATCC 6538	<1.31
CCCCCCCCCC(=O)OCC[N+](C)(C)CCOC(=O)CCCCCCCCC.COS(=O)(=O)[O-] [Example 10]	Staphylococcus aureus ATCC 6538	>5.56
CCCCCCCC(=O)OCC[N+](C)(CCO)CCOC(=O)CCCCCCC.COS(=O)(=O)[O-] [Example 7]	Staphylococcus aureus ATCC 6538	>5.75
CCCCCCCCCCCC(=O)OCC[N+](C)(C)CCOC(=O)CCCCCCCCCCC.COS(=O)(=O)[O-] [Example 8]	Staphylococcus aureus ATCC 6538	1.98

Consider now this further compound.
## Input # query: logarithmic reduction factor of entry CCCCCCCC(=O)OCC[N+](C)(C)CCOC(=O)CCCCCCC.COS(=O)(=O)[O-] [Example 1]
## Output <1.32

---

# System: Staphylococcus aureus ATCC 6538
# protocolNotes: DGHM suspension test, microbicidal activity
# Type: cell-based
# experimentalConditions: CU 400 mg/l; contact time 60 mins.
Overview of recorded logarithmic reduction factor for various compounds

Answered cases to consult:
smilesString	testedOn	logarithmic reduction factor
CCCCCCCC(=O)OCC[N+](C)(CCO)CCOC(=O)CCCCCCC.COS(=O)(=O)[O-]	Staphylococcus aureus ATCC 6538	>5.69
CCCCCCCCCC(=O)OCC[N+](C)(CCO)CCOC(=O)CCCCCCCCC.COS(=O)(=O)[O-]	Staphylococcus aureus ATCC 6538	>5.86
CCCCCCCC(=O)OCC[N+](C)(C)CCOC(=O)CCCCCCC.COS(=O)(=O)[O-]	Staphylococcus aureus ATCC 6538	3.54
CCCCCCCC(=O)OCC[N+](C)(CCOC(=O)CCCCCCC)CCOC(=O)CCCCCCC.COS(=O)(=O)[O-]	Staphylococcus aureus ATCC 6538	>5.41
CCCCCCCCC(=O)OCC[N+](C)(C)CCOC(=O)CCCCCCCC.COS(=O)(=O)[O-]	Staphylococcus aureus ATCC 6538	>5.55

## Input # query: logarithmic reduction factor of entry CCCCCCCCCC(=O)OCC[N+](C)(C)CCOC(=O)CCCCCCCCC.COS(=O)(=O)[O-]
## Output >5.69

## Input # query: logarithmic reduction factor of entry CCCCCCCCCCCC(=O)OCC[N+](C)(CCO)CCOC(=O)CCCCCCCCCCC.COS(=O)(=O)[O-]
## Output >5.86
